Values from paper PMC9090415

biological target: P. falciparum apicoplast DNA polymerase (Pf-apPOL) (Plasmodium falciparum, UniProt Q8ILY1); assay: Fluorescence-based high-throughput DNA polymerase assay (molecular beacon), primary screen and dose-response; format: biochemical; conditions: DRC-1; 10'; concentration 5
Sequence (Q8ILY1 entry or part of it): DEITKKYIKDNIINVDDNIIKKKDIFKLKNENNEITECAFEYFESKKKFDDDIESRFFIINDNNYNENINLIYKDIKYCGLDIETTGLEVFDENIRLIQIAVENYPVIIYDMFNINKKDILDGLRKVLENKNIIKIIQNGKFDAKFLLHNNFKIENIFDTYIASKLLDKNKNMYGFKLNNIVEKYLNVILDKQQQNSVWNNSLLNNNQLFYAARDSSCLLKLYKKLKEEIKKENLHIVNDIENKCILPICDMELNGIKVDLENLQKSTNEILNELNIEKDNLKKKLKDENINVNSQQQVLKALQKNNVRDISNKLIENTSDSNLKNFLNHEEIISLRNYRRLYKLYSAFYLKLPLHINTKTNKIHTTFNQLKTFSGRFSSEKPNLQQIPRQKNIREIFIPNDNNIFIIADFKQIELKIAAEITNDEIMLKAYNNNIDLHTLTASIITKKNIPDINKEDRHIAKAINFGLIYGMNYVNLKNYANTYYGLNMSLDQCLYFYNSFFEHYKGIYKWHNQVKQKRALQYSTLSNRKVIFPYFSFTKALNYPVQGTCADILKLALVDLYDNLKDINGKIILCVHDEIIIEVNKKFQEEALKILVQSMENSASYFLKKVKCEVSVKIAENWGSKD
Parameter threshold = 20%. Response is Yes when % inhibition Apo pol 10' meets or exceeds it, else No.

Asked: Does the reported % inhibition Apo pol 10' for O=C(O)CC1=NN(c2cccc([N+](=O)[O-])c2)C(=O)C1 fall at or above the 20% mark?
Given back: Yes

Asked: Then what about the molecule O=c1[nH]c2ccc(Br)cc2c(-c2ccccc2)c1C1=NNC(c2ccco2)C1 (centres unmarked) ?
Given back: Yes

Asked: COc1cc(Cl)c(C)cc1NC(=O)Cn1ccc2c(=O)[nH]ccc21 ?
Given back: No

Asked: Now this one: O=C(Nc1ncc([N+](=O)[O-])s1)c1ccc2c(c1)C(=O)N(N1C(=O)c3ccccc3C1=O)C2=O
Given back: No

Asked: Also need CCN1C(=O)C(=Cc2cccc(OC)c2O)SC1=S , thanks.
Given back: No
